These measurements were taken from ChEMBL document CHEMBL3392991.

# System Tested: Nitric oxide synthase 1 (Rattus norvegicus, UniProt P29476)
# Sequence (P29476 whole entry): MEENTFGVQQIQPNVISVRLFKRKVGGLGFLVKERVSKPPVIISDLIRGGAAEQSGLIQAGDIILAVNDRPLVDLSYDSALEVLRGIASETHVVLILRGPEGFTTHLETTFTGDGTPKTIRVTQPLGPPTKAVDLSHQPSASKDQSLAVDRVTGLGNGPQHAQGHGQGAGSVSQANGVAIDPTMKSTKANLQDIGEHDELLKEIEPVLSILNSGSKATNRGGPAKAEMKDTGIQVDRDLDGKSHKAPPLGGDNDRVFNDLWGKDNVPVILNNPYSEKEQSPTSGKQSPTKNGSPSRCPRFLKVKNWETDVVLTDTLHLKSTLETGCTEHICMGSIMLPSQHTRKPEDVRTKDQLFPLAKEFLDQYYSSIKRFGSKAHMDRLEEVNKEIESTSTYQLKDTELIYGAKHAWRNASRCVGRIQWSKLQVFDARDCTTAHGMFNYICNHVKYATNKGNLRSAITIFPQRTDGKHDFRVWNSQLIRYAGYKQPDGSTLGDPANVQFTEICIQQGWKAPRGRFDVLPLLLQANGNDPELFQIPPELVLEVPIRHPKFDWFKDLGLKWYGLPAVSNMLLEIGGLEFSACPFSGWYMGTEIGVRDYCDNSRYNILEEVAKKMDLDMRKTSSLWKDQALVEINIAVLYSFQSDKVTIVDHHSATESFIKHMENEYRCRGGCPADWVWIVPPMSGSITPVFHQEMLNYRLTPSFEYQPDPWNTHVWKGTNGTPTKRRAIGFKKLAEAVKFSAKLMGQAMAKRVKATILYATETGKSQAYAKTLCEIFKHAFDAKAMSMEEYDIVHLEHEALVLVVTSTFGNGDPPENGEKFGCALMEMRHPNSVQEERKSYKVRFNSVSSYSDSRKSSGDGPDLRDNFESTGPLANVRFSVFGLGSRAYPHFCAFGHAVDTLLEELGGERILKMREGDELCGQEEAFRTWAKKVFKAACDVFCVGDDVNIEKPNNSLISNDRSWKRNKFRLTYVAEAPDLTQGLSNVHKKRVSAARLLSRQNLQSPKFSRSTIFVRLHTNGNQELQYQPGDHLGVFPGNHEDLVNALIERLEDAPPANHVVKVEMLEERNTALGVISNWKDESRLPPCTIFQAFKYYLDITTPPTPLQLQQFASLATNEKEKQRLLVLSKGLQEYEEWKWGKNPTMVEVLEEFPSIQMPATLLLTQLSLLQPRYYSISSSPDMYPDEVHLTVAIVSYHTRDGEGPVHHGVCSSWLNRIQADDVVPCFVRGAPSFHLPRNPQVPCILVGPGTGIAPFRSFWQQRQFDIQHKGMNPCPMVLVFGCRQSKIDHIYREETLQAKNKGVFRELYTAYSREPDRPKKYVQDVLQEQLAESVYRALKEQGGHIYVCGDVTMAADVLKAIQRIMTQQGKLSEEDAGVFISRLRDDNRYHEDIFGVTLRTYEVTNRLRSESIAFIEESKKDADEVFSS
Measured Metric: Ki (µM)
Return type: number; implicit unit µM.

Exam item: Item `CNc1cc(C)cc(CCc2cc(C#N)cc(CCc3cc(C)cc(N)n3)c2)n1` with Nitric oxide synthase 1 (Rattus norvegicus, UniProt P29476) - Ki?
Marked response: 0.196

###

# System: Bacillus subtilis
# Assay Overview: Displacement of imidazole from Bacillus subtilis NOS
Measured Metric: Ks (µM)
Return type: number; implicit unit µM.

Examples from the recorded data:
> print(dat)
                        structure.as.smiles  units.label  value
1  Cc1cc(N)nc(CCc2cc(CCCN)cc(CCc3cc(C)cc(N)n3)c2)c1           µM     16
2  Cc1cc(N)nc(CCc2cc(CN)cc(CCc3ccc4cc[nH]c4n3)c2)c1           µM     10
3  CNc1cc(C)cc(CCc2cc(C#N)cc(CCc3cc(C)cc(N)n3)c2)n1           µM     12

Exam item: Look at this compound and give its reported Ks. `N=C(NO)NCCC[C@H](N)C(=O)O`
Marked response: 3.2

Exam item: Look at this compound and give its reported Ks. `Cc1cc(N)nc(CCc2cc(N)cc(CCc3cc(C)cc(N)n3)c2)c1`
Marked response: 0.91

Exam item: Look at this compound and give its reported Ks. `Cc1cc(N)nc(CCc2cc(CN)cc(CCc3cc(C)cc(N)n3)c2)c1`
Marked response: 15
